Assay: Primary qHTS for inhibitors of nuclear receptor binding SET domain protein 2 (NSD2) in an RCH-ACV wild type WT cells (2C) (AID 1645877); also: nearly all actives have a fitted effect of over 70% in size
Conditions: RCH-ACV (leukaemia line) NSD2 WT (2C) viability, CellTiter-Glo, 72 h; series mostly up to 44.9 µM
Source text: Assay Provider: Jonathan D. Licht, MD University of Florida College of Medicine, Gainesville, FL Mutations in epigenetic regulators are common in relapsed pediatric acute lymphoblastic leukemia (ALL). Here, we uncovered the mechanism underlying the relapse of ALL driven by an activating mutation of the NSD2 histone methyltransferase (p.E1099K). […] Correction of this mutation restored glucocorticoid sensitivity. […]
Results filed as inconclusive are left out. Activity calls are given as the source filed them. Calls follow the shape of the dose curve; as a rule, active = well fitted inhibition curve with a large enough effect; inconclusive = small, poorly fitted or top-dose-only effect; inactive = no such curve, though single readings can be large or run the other way.
Entry note: the call must match one of active, inactive

Please review the entries below; each comes with its answer.
{"molecule": "COc1ccc(CC2c3cc(OC)c(OC)cc3CC[N+]2(C)CCC(=O)OCCCCCOC(=O)CC[N+]2(C)CCc3cc(OC)c(OC)cc3C2Cc2ccc(OC)c(OC)c2)cc1OC (stereo unspecified)", "cat": "active"}
{"molecule": "CC1COC2(CCN(c3nc(=O)c4cc(C(F)(F)F)cc([N+](=O)[O-])c4s3)CC2)O1 (stereo unspecified)", "cat": "inactive"}
{"molecule": "CCc1cc2c(cc1N1CCC(N3CCOCC3)CC1)C(C)(C)c1[nH]c3cc(C#N)ccc3c1C2=O", "cat": "active"}
{"molecule": "COCCn1c2c([n+](Cc3cnccn3)c1C)C(=O)c1ccccc1C2=O", "cat": "active"}
{"molecule": "Cc1cc(Nc2cc(N3CCN(C)CC3)nc(Sc3ccc(NC(=O)C4CC4)cc3)n2)n[nH]1", "cat": "active"}

input: What did the test return for COC(=O)C1=C(C)NC(C)=C(C(=O)OCCN2CCN(C(c3ccccc3)c3ccccc3)CC2)C1c1cccc([N+](=O)[O-])c1 (stereo unspecified) ?
output: active

input: I'd appreciate the recorded outcome for CCc1c2c(nc3ccc(O)cc13)-c1cc3c(c(=O)n1C2)COC(=O)[C@]3(O)CC from this test.
output: active

input: For C[C@]1(CO)CN(c2cc(C(=O)Nc3ccc4c(c3)-c3c(c(C(N)=O)nn3-c3ccc(F)cc3)CC4)c(Cl)cn2)C[C@@]1(C)CO , which call appears in the assay record?
output: active

input: Which outcome was entered for the molecule C[C@]12CC[C@H](O)CC1=CCC1C2CC[C@]2(C)C(n3cnc4ccccc43)=CCC12 (stereo partly specified) in this test?
output: inactive

input: Look up the recorded call for Nc1nc(-c2nn(Cc3ccccc3F)c3ncccc23)nc(N)c1N1CCOCC1 in this test.
output: inactive

input: # fetch the recorded call for CNC(=O)c1ccc(-c2cnc3ncc(Cc4ccc5ncccc5c4)n3n2)cc1F here
output: inactive

input: Can you look up the reported call for Cn1cc(-c2ccncc2)c(-c2ccc(OCc3ccc4ccccc4n3)cc2)n1 for me?
output: active

input: What did the test return for CCOc1ccccc1OCCNC(C)Cc1ccc(OC)c(S(N)(=O)=O)c1 (stereo unspecified) ?
output: inactive

input: # lookup: test call for COC(=O)Nc1ccc(-c2nc(N3CCOCC3)c3cnn(C4CCN(Cc5cccnc5)CC4)c3n2)cc1
output: active

input: Which outcome was assigned to O=C1CCC[C@@H]2[C@H]3CCC[N+]4([O-])CCC[C@@H](CN12)[C@@H]34 (stereo partly specified) in this test?
output: inactive
